Hey, just so you know, these numbers are from ChEMBL document CHEMBL4715759.

Assay: Therapeutic Index, ratio of LD50 of Toxicity in iv dosed mouse to minimum effective hypnotic dose in mouse
Assay type: organism-based
Details: in vivo, read-out: TI
Overview of recorded selectivity ratio for various compounds

{"compound": "CC1=NN2CCCC(=O)N=C2S1", "selectivity ratio": 3.55}
{"compound": "CCCC(C)C1(CC)C(=O)[N-]C(=S)NC1=O.[Na+] (stereo unspecified) [THIOPENTAL SODIUM]", "selectivity ratio": 6.1}
{"compound": "O=C1CCCN2N=C(c3ccccc3)SC2=N1", "selectivity ratio": 6.62}
{"compound": "O=C1CCCN2N=C(C(F)(F)F)SC2=N1", "selectivity ratio": 3.32}
{"compound": "O=C1CCCN2N=C(c3ccc(Br)cc3)SC2=N1", "selectivity ratio": 1.5}
{"compound": "Cc1ccc(C2=NN3CCCC(=O)N=C3S2)cc1", "selectivity ratio": 1.25}
